experiment: Cytotoxicity against african green monkey Vero cells by trypan blue exclusion assay; format: cell-based; conditions: chlorocebus sabaeus
recorded-endpoint: CC50

O=S1(=O)CS/C(=N\C(=S)N(c2ccccc2)c2ccccc2)N1c1ccccc1 = > 70 µM

----------
test: Cytotoxicity against african green monkey Vero cells after 48 hrs by MTS method; assay type: cell-based; conditions: chlorocebus sabaeus
As shown below, each of these molecules has a reported CC50 at 48 h value.
recorded-endpoint: CC50 at 48 h

CC(C)N(C(=S)/N=C1\SC(C)S(=O)(=O)N1C)C(C)C (centres undefined) = 90 µM
CC(C)N(C(=S)/N=C1\SCS(=O)(=O)N1c1ccccc1)C(C)C = > 80 µM
O=S1(=O)CS/C(=N\C(=S)N(Cc2ccccc2)Cc2ccccc2)N1c1ccccc1 = 65 µM
O=S1(=O)CS/C(=N\C(=S)N(c2ccccc2)c2ccccc2)N1c1ccccc1 = > 70 µM
